// reported Top (MFI) per item
- assayed target: T1, human SLC34A2 (human, UniProt O95436 1-690)
- T1 construct: whole, on cells; also called human solute carrier 34 A2; NaPi2b
- T1 sequence (looked up): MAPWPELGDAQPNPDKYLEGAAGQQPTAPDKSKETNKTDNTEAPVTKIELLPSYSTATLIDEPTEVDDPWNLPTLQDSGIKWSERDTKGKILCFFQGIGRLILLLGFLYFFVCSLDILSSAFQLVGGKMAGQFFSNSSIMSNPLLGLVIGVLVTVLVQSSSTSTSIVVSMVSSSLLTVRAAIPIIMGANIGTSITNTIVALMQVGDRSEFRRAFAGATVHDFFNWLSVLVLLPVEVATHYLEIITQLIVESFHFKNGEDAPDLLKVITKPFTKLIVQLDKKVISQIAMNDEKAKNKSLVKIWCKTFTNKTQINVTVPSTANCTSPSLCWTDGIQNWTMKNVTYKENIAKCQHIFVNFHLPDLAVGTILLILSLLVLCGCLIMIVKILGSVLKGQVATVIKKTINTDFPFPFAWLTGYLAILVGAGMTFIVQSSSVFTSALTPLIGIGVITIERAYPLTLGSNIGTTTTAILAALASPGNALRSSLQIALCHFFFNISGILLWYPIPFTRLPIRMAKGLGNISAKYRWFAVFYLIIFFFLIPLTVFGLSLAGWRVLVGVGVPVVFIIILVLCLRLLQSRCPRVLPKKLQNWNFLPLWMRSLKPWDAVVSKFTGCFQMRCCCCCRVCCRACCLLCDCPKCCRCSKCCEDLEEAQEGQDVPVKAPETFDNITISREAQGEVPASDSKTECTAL
- method description: FACS, OVCAR3 cells
value kind: Top (MFI)

{"columns": ["binder", "result units", "recorded measurement"],
 "data": [
  ["xi25B11B9 hIgG1 (antibody, V domains shown, chimeric, hIgG1) VH: DVKLVESGGGLVRLGGSLKLSCAASGFTFSSHYMSWVRQTPKKRLELVATINSSGGNTYYPDTVKGRFTISRDNARNTLFLQMTSLKSEDTALYYCARQPINTVAYFDYWGQGTTLTVSS VL: DIVMTQSHEFMSTSVGARVSITCKASQDLTTAVAWYQQKPGQSPKLLIYWASTRHIGVPDRFTGSGSGADYTLTISSVQAEDLALYYCQQYHSTPLTFGAGTKLELK", "MFI", 42500],
  ["xi62C10B3D2 hIgG1 (antibody, V domains shown, chimeric, hIgG1) VH: QVHQQQSGPELVKPGASVRISCKASGYTFTSYYIHWVKQRPGQGLEWIGCIYPGNLFTKYNEKFKDKATLTADTSSTTAYMHLSSLTSEDSAVYFCARFLNWNAWYFDVWGAGTTVSVSS VL: DVLMTQTPLSLPVSLGDQASISCRSSQSIEHSNGNTNLEWYLQKPGQSPRLLIYKVSNRFSGVPDRFSGSGSGTDFTLKITGVEAEDLGVYYCFQGSHFPWTFGGGTKLEIK", "MFI", 29500],
  ["xi20H2F1 hIgG1 (antibody, V domains shown, chimeric, hIgG1) VH: EVKLVESGGNLVKPGGSLKLSCAASGFTFSSYAMSWVRQTPEKRLEWVASISNGGTTYYPDSVKGRFTISRDVARNILYLQMTSLRSEDTAMYYCARTHYRDFVYWGQGTLVTVSA VL: EIVLTQAAFSNPVTLGTSASISCRSSKSLLHSNGITYLYWYLQKPGQSPQLLIYQMSNLASGVPDRFSCSGSGTDFTLRISRVEAEDVGVYYCAQNLEFPWTFGGGTKLEIK", "MFI", 26500]
]}

Where do these numbers come from? They come from patent US20240301052A1.
